For each record, write down the corresponding composite z-score.
- system-name: Neurogenic locus notch homolog protein 2 (Homo sapiens)
- measurement-notes: Notch2 binders on small-molecule microarrays, primary screen, biochemical, small-molecule microarray, 635 nm fluorescence, stem cell growth factors (AID 1073)
- test-parameters: Notch2 binding, higher = more signal
Give bare numbers.

Consider the following illustrative entries.
[[record]]
mol = "COc1ccc([Si](C)(C)[C@H]2[C@H](CCO)O[C@@]3(C(=O)N(Cc4ccccc4)c4ccc(NC(=O)[C@H](C)O)cc43)[C@@H]2C)cc1"
system_name = "Neurogenic locus notch homolog protein 2 (Homo sapiens)"
result_value = 0.855

[[record]]
mol = "O=C/C=C/c1ccc(-c2ccccc2)cc1"
system_name = "Neurogenic locus notch homolog protein 2 (Homo sapiens)"
result_value = -0.327

[[record]]
mol = "COCCCNC(=O)[C@@]1(Cc2ccccc2I)c2ccccc2C(=O)N(Cc2ccccc2C(F)(F)F)[C@H]1c1ccc(CO)cc1"
system_name = "Neurogenic locus notch homolog protein 2 (Homo sapiens)"
result_value = -1.01


State recorded composite z-score for all listed compounds.
1. CC[C@@H](O[Si](C#C[Si](C(C)C)(C(C)C)C(C)C)(C(C)C)C(C)C)c1cn([C@H](C)c2ccccc2)nn1
2. C#CCN(C(=O)OC(C)(C)C)[C@H](CO)c1ccccc1
3. Cc1ccc(S[C@]2(C(=O)NCc3ccccc3)CC(=O)N(Cc3ccccc3Cl)[C@@H]2c2ccc(CO)cc2)cc1

0.728
-0.148
-0.331

###

- measurement-notes: anti-His antibody binders, primary screen, artefact control for SMM control protein annotation, biochemical, small-molecule microarray, 635 nm fluorescence (AID 1128);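 note: score merges feature fluorescence with signal-to-noise for each printed compound spot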
- test-parameters: anti-His Alexa647 antibody binding, higher = more signal
test-readout: composite z-score
Numbers only.

Below are 3 molecules. Give each one its composite z-score.
1. O=C1OCC=C[C@H]2OC34C=CCN(Cn5nnc6ccccc65)C(=O)[C@H]3N(CCO)C(=O)[C@@H]4[C@@H]12 (stereo partly drawn)
2. COC(=O)[C@@]1(Cc2ccc(F)cc2)[C@H]2c3cc(C(=O)N4CCCC4)n(Cc4ccc(OC(F)(F)F)cc4)c3C[C@H]2CN1C(=O)c1ccccc1
3. C=CC[C@]1(C(=O)NCC(O)CO)N=C(c2ccc(OCCCO)cc2)O[C@H]1c1ccccc1CN=[N+]=[N-] (stereo partly drawn)

1.68
-0.509
2.81

###

- measurement-notes: RPMI8226 myeloma cell viability, profiling panel, resazurin fluorescence, basal, 24 h, PK04 Diversity Set (AID 1180);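 note: RPMI8826 multiple myeloma cell line at 5000 cells per well; test concentration not given here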
- test-parameters: higher = more signal
test-readout: z-score
One number for each entry.

Give z-score for all molecules that follow.
1. C=C(CC1([C@@H](NP(=O)(c2ccccc2)c2ccccc2)[C@H]2C[C@@H]2CCCC)CC1)c1cccc(OC)c1
2. C=CCNC(=O)[C@@H]1[C@H]2C(=O)O[C@H](c3ccccc3)[C@H](c3ccccc3)N2[C@H](c2ccc(OCCO)cc2)[C@@]12C(=O)N(C(=O)OCCOC)c1ccccc12
3. C=CC[C@]1(C(=O)NCCN2CCOCC2)N=C(c2ccc(OCCCO)cc2)O[C@H]1c1ccccc1
4. COc1ccc(C(O)C2C=CC3C(=O)N(c4ccccc4)C(=O)C3N2Nc2ccccc2F)c2ccccc12 (configuration not stated)

1: 3.23; 2: -0.289; 3: 0.749; 4: 0.0565

Items follow; give z-score for each.
1. CCCN1C(=O)[C@@]2(c3ccc([N+](=O)[O-])cc3)CC(=O)N(C3CCCCC3)[C@@H]2c2ccc(CO)cc21
2. COCCCNC(=O)[C@]1(Cc2ccccc2N=[N+]=[N-])N=C(c2ccc(OCCCO)cc2)O[C@@H]1c1ccccc1
3. COCCOC(=O)N1C(=O)[C@@]2(c3cc(C#CC4(O)CCCCCC4)ccc31)[C@H](C(N)=O)[C@H]1C(=O)O[C@H](c3ccccc3)[C@H](c3ccccc3)N1[C@@H]2c1ccc(OCCO)cc1

1: -0.606; 2: -0.953; 3: -3.3
